The entries below are paired with their reported melting point.

// below: answered compounds
CCCCCCCCCCCCCCCCSCC(CN=[N+]=[N-])NC(=O)OC(C)(C)C (configuration not stated) : 63 to 64 °C
CCCCCCN1C(=O)C(=CC(=O)O)SC1=Nc1ccc(Cl)c(Cl)c1 : 156 to 157 °C
CS(=O)(=O)Nn1c(=O)[nH]c2cc(C(F)(F)F)c(Oc3cccnc3)cc2c1=O : 194 to 196 °C

Task: # melting point lookup, item O=C1c2ccccc2C(O)(c2ccccc2)N1C1CCN(CCC(c2ccccc2)c2ccccc2)CC1 (configuration not stated)
Output: 150 to 153 °C

Task: # melting point lookup, item O=C(O)c1cc[nH]c1Sc1ccc(Cl)cc1Cl
Output: 160 to 164 °C

Task: # melting point lookup, item COc1ccc(Nc2nc(N)nc3c(OC)cccc23)c(C)c1
Output: 185 to 187 °C

Task: # melting point lookup, item Clc1nc(Br)cnc1N1CCNCC1
Output: 114 to 115 °C

Task: # melting point lookup, item CC(C)c1cc(S(N)(=O)=O)c(C(C)C)cc1C(F)(F)F
Output: 171 to 174 °C

Task: # melting point lookup, item CC1=NC(=CC(=CN(C)C)c2ccc(C)cc2[N+](=O)[O-])C(=O)O1
Output: 200 to 201 °C

Task: # melting point lookup, item Cc1c(C=NO)c2ccccc2n1-c1ccc(O)c(F)c1
Output: 182 to 184 °C

Task: # melting point lookup, item NCC(=O)NC(Cc1ccncc1)c1ccccc1 (configuration not stated)
Output: 145 to 147 °C

Task: # melting point lookup, item O=C1Oc2ccccc2Oc2ccccc21
Output: 62 to 66 °C

Task: # melting point lookup, item CC(C)N1CCC(C(=O)OC2c3ccccc3C(=O)N2c2ccc3ccc(Cl)nc3n2)CC1 (configuration not stated)
Output: 184 °C

Task: # melting point lookup, item Cn1c2c(c3ccccc31)CC(C(=O)O)N(C(=O)c1ccc(Cl)cc1)C2 (configuration not stated)
Output: 262 to 263 °C

Task: # melting point lookup, item COc1ccc(N(CCCC(=O)O)C(=O)CCCN(C(=O)c2ccc(Cl)cc2)c2c(C)cccc2C)cc1
Output: 119 to 121 °C

Task: # melting point lookup, item Cc1cn(CC(=O)N(CCNC(=O)OC(C)(C)C)CC(=O)Oc2c(F)c(F)c(F)c(F)c2F)c(=O)[nH]c1=O
Output: 174 to 176 °C

Task: # melting point lookup, item c1cc(-c2n[nH]c3c2Cc2cc(CN4CCOCC4)ccc2-3)cs1
Output: 196 to 198 °C

----------
The entries below are paired with their reported melting point.

// below: answered compounds
O=c1cc(-c2cccc(F)c2)oc2ccc(OCCCCCCN3CCC(O)CC3)cc12 : 136 to 137 °C
CCOC(=O)COc1ccc2cc(-c3cc4ccccc4o3)ccc2c1Cl : 140 to 142 °C
COC(=O)Nc1ccc(-c2ncon2)cc1 : 174 to 176 °C
CCCCOCCCOCCCCCCNCC(O)c1cc(Cl)c(N)c(Cl)c1 (centres undefined) : 49 to 51 °C
CCc1cnc(C2=NC(C)(C(C)C)C(=O)N2)c(C(=O)NCCCCCC(=O)OC)c1 (centres undefined) : 101 to 103 °C

Task: # melting point lookup, item COc1ccc(C(=O)c2c(C)n3c4c(cccc24)OCC3CN2CCOCC2)cc1 (centres undefined)
Output: 182 to 189 °C

Task: # melting point lookup, item CCOC(=O)c1nnc2c3ccc(Cl)cc3c(-c3ccccc3)nn12
Output: 266 to 268 °C

Task: # melting point lookup, item CCCCCCCN(CC)CCC(O)c1ccc(NS(C)(=O)=O)cc1 (centres undefined)
Output: 74 to 75 °C

Task: # melting point lookup, item CCSC1(c2ccc(Cl)cc2)OC(c2ccncc2)=Nc2ccccc21 (centres undefined)
Output: 138 to 139 °C
